# maps each entry to its GI50
- Tested on: HOP-62
- Test Protocol: NCI tumour cell line growth inhibition, 48 h
Active and inactive are the calls of the source. Cut-off read from the data, not from the text of the source: active = GI50 up to about 1.1 µM and inactive = higher.
Metric: GI50

* CN(C)CCCNC(=O)c1cc(NC(=O)c2cc(NC(=O)CCCn3c4ccccc4c4ccccc43)cn2C)cn1C | 13.6 µM (inactive)
* CCOP(=O)(OCC)C(Nc1ccc(Cl)cc1)c1ccc(F)cc1 (stereo unspecified) | 19 µM (inactive)
* CCN(CC)CCNc1ccc2nnn3c4ccc(OCCN(CC)CC)cc4c(=O)c1c23 | 19.4 µM (inactive)
* CC(C)(C)C(=O)C(C(=O)c1ccccc1)C(=O)C(C)(C)C | > 100 µM (inactive)
* COc1cccc(C2SCc3nc4ccccc4n32)c1 (stereo unspecified) | > 100 µM (inactive)
* O=C(O)c1c2c(cc3c1CC1(Cc4cc5c(cc4C1=O)CCC5)C3)CCC2 (stereo unspecified) | > 100 µM (inactive)
* O=C1/C(=C/c2ccc(F)cc2)CNC/C1=C\c1ccc(F)cc1 | 1.78 µM (inactive)
* O=c1[nH]c(=O)n(C2CC(O)C(CO)O2)cc1COCC(F)(F)F (stereo unspecified) | > 100 µM (inactive)
* CC(C)(C)/N=C1/CC(C)(C)c2ccccc2/C(=N\c2ccccc2)S1 | 44.7 µM (inactive)
* CC1(C)CC2(CC(C)(C)N1O)NC(=O)OC2=O | > 100 µM (inactive)
* O=C(CC(C(=O)c1ccsc1)c1ccccc1)c1ccccc1 (stereo unspecified) | > 100 µM (inactive)
